Exercise: for every item that follows, state its recorded shrunken log2 fold change.
Tested on: Escherichia coli TOP10
method: shrunken log2 fold change of peptide-encoding DNA abundance (4.5 h post-induction vs induction); higher = less antimicrobial activity (less host growth inhibition)
reportedConditions: time post-induction: 4.5 h; library: site-saturation at positions 5, 18, 19, 20
Give a plain numeric answer without units written out.

Q: Give the measured shrunken log2 fold change of "RRIRCRPPRLPRPRPRPTGQPRP" .
Result: 0.123

Q: Please report the recorded shrunken log2 fold change for "RRIRERPPRLPRPRPRPRDFPRP" .
Result: -0.134

Q: // lookup shrunken log2 fold change for "RRIRHRPPRLPRPRPRPVTMPRP"
Result: -0.513

Q: What value of measured shrunken log2 fold change is listed for "RRIRWRPPRLPRPRPRPAVFPRP" ?
Result: 0.354

Q: If you can, please state the reported shrunken log2 fold change value of "RRIRGRPPRLPRPRPRPQYMPRP" .
Result: -0.195

Q: Please look up its shrunken log2 fold change: "RRIRPRPPRLPRPRPRPWCQPRP"
Result: 0.0224

Q: Report shrunken log2 fold change for "RRIRARPPRLPRPRPRPTQWPRP" please.
Result: 0.457

Q: Given "RRIRLRPPRLPRPRPRPCRKPRP" , state its recorded shrunken log2 fold change.
Result: -0.19

Q: Which shrunken log2 fold change is reported for this sequence? "RRIRRRPPRLPRPRPRPFRPPRP"
Result: 0.317

Q: Consider the sequence "RRIRARPPRLPRPRPRPSCKPRP" and give its measured shrunken log2 fold change.
Result: -0.291

Q: Entry "RRIRFRPPRLPRPRPRPTMKPRP" has what shrunken log2 fold change?
Result: -0.178

Q: Endpoint output: shrunken log2 fold change of "RRIRKRPPRLPRPRPRPTSFPRP" . Value?
Result: -0.044

Q: GET /values?readout=shrunken log2 fold change&item= "RRIRLRPPRLPRPRPRPDQMPRP"
Result: -0.0132

Q: Record request: shrunken log2 fold change value, item "RRIRNRPPRLPRPRPRPQTFPRP"
Result: -0.0594

Q: Can you share its shrunken log2 fold change? I mean this sequence: "RRIRYRPPRLPRPRPRPALDPRP"
Result: -0.132

###

Tested on: Escherichia coli TOP10;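 note: peptides expressed intracellularly from a pBAD plasmid library in pooled LB shake-flask culture, induced with 0.3% L-arabinose, DNA abundance read by NGS, three biological replicates, DESeq2 with apeglm shrinkage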
method: shrunken log2 fold change of peptide-encoding DNA abundance (4.5 h post-induction vs induction); higher = less antimicrobial activity (less host growth inhibition)
reportedConditions: time post-induction: 4.5 h; library: site-saturation at positions 5, 18, 19, 20
assayReadout: shrunken log2 fold change
Answer with a bare number; do not write a unit.

Q: Which shrunken log2 fold change is listed for "RRIRLRPPRLPRPRPRPVQGPRP" ?
Result: -0.01

Q: I would be grateful if you could share the reported shrunken log2 fold change for "RRIRERPPRLPRPRPRPTIVPRP" .
Result: 0.03

Q: Item under review: "RRIRKRPPRLPRPRPRPTCMPRP" . Reported shrunken log2 fold change?
Result: 0.576

Q: Entry "RRIRLRPPRLPRPRPRPFIKPRP" : reported shrunken log2 fold change = ?
Result: -0.66

Q: What does the record list as shrunken log2 fold change for "RRIRTRPPRLPRPRPRPFHIPRP" ?
Result: 0.0392

Q: Field request: shrunken log2 fold change | item: "RRIRRRPPRLPRPRPRPVFCPRP"
Result: 0.291

Q: So what's the measured shrunken log2 fold change for this one? "RRIRCRPPRLPRPRPRPTQQPRP"
Result: -0.0719

Q: Could you tell me which shrunken log2 fold change is on file for "RRIRIRPPRLPRPRPRPAFTPRP" ?
Result: 0.106

Q: For the sequence shown here, "RRIRRRPPRLPRPRPRPKMEPRP" , give the reported shrunken log2 fold change.
Result: 0.282

Q: Need shrunken log2 fold change of "RRIRRRPPRLPRPRPRPNCWPRP" , thanks.
Result: 0.228

Q: shrunken log2 fold change for "RRIRNRPPRLPRPRPRPIGYPRP" ?
Result: 0.103

Q: For "RRIRFRPPRLPRPRPRPAKKPRP" , what is its reported shrunken log2 fold change?
Result: 0.188

Q: For the sequence "RRIRMRPPRLPRPRPRPPYCPRP" , what shrunken log2 fold change is on record?
Result: 0.0371

Q: Entry under review: "RRIRIRPPRLPRPRPRPGKFPRP" . Reported shrunken log2 fold change?
Result: -0.0679

Q: For "RRIRTRPPRLPRPRPRPPKYPRP" , what is its reported shrunken log2 fold change?
Result: -0.103
